# experimental_target: T1, cynomolgus SIRPβ1v3 extracellular domain + His-tag (XP_005568593) (cynomolgus monkey)
# T1 construct: also called Cyno SIRPβ1v3; cynoSIRPβ1v3
# T1 chain: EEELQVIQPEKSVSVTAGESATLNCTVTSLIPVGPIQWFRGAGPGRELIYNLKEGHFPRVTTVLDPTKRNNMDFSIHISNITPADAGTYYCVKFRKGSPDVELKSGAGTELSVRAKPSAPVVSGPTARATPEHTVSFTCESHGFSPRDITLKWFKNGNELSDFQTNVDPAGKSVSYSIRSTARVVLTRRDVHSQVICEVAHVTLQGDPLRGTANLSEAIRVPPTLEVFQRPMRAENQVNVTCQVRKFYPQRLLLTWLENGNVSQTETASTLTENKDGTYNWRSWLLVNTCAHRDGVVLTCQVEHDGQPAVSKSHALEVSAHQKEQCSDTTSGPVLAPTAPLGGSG
# assay_protocol: SPR, Ab captured, ECD-His analyte

binder: Antibody A14 (antibody, human IgG1, kappa, L234A L235A, V domains shown) VH: EVQLVESGGGLVQPGGSLRLSCAASGFTLSSYDMHWVRQAPGKGLEWVSAIGTAGDTYYTGSVKGRFTISRENAKNSLYLQMNSLRASDTAVYYCVRGGVWDDAFDIWGQGTMVTVSS VL: DIQMTQSPSSLSASVGDRVTITCRASQDINNYLAWFQQKPGKAPKSLIYTASSLHSGVPSKFSGSGSGTDFTLTISSLQPEDFATYYCQQYVSYPYTFGQGTKLEIKR
Kd / nM: 235
//
binder: Antibody A13 (antibody, human IgG1, kappa, L234A L235A, V domains shown) VH: EVQLVESGGGLVQPGGSLRLSCAASGFTLSSYDMHWVRQAPGKGLEWVSAIGTAGDTYYTGSVKGRFTISRENAKNSLYLQMNSLRAADTAVYYCVRGGVWDDAFDIWGQGTMVTVSS VL: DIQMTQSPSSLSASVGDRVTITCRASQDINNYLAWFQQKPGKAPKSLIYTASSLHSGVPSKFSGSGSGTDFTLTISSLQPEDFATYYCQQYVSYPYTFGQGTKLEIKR
Kd / nM: 238
//
binder: Antibody A4 (antibody, human IgG1, kappa, L234A L235A, V domains shown) VH: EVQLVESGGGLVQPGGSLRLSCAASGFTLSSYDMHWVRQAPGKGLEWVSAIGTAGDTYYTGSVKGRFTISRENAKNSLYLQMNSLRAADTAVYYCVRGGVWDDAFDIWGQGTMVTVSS VL: DIQMTQSPSSLSASVGDRVTITCRASQGINNYAAWFQQKPGKAPKSLIYTASSLHSGVPSKFSGSGSGTDFTLTISSLQPEDFATYYCQQYVSYPYTFGQGTKLEIKR
Kd / nM: 460
//
binder: Antibody A15 (antibody, human IgG1, kappa, L234A L235A, V domains shown) VH: EVQLVESGGGLVQPGGSLRLSCAASGFTLSSYDMHWVRQAPGKGLEWVSAIGTAGDTYYTGSVKGRFTISRENAKNSLYLQMNSLRAEDTAVYYCVRGGVWDDAFDIWGQGTMVTVSS VL: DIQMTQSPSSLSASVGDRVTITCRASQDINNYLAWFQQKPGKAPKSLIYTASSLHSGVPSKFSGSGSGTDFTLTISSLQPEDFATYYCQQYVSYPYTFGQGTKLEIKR
Kd / nM: 232
//
binder: Antibody A12 (antibody, human IgG1, kappa, L234A L235A, V domains shown) VH: EVQLVESGGGLVQPGGSLRLSCAASGFTLSSYDMHWVRQATGKGLEWVSAIGTAGDTYYTGSVKGRFTISRENAKNSLYLQMNSLRASDTAVYYCVRGGVWDDAFDIWGQGTMVTVSS VL: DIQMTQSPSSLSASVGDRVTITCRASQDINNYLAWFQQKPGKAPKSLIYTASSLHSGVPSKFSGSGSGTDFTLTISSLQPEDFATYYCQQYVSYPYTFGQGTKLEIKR
Kd / nM: 279
//
binder: Antibody A9 (antibody, human IgG1, kappa, L234A L235A, V domains shown) VH: EVQLVESGGGLVQPGGSLRLSCAASGFTLSSYDMHWVRQAPGKGLEWVSAIGTAGDTYYTGSVKGRFTISRENAKNSLYLQMNSLRADDTAVYYCVRGGVWDDAFDIWGQGTMVTVSS VL: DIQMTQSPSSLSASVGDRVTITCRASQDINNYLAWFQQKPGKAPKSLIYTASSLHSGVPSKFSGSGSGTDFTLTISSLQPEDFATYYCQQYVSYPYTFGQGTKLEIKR
Kd / nM: 257
